- EXPERIMENT: Single-dose pharmacokinetics in beagle dogs
- Type: in vivo, female beagle dogs
- EXPERIMENTAL CONTEXT: female, beagle, dog, plasma; IV, 4:1 PEG400:Water, 0.67 mg/kg, Fasted
TEST READOUT: half-life (h)
Enter your answer as a number in h; do not include the unit.

Problem: Supply measured half-life of CCOc1ccc(-c2ccc(Cn3c(CC(C)(C)C(=O)[O-])c(SC(C)(C)C)c4cc(OCc5ccc(C)cn5)ccc43)cc2)cn1.[Na+] in your reply.
Solution: 13

###

- EXPERIMENT: Phase I study: pharmacokinetics after single and multiple oral doses
- Type: in vivo
- EXPERIMENTAL CONTEXT: human, plasma, oral, 450 mg, multiple dose 450 mg, Day 11; read-out: t½ (converted)
TEST READOUT: half-life (h)
Enter your answer as a number in h; do not include the unit.

Problem: Supply measured half-life of CCOc1ccc(-c2ccc(Cn3c(CC(C)(C)C(=O)[O-])c(SC(C)(C)C)c4cc(OCc5ccc(C)cn5)ccc43)cc2)cn1.[Na+] in your reply.
Solution: 14

###

- EXPERIMENT: Single-dose pharmacokinetics in beagle dogs
- Type: in vivo, female beagle dogs
- EXPERIMENTAL CONTEXT: female, beagle, dog, plasma, po, 5 mg/kg, 0.5% Methylcellulose, Fasted
TEST READOUT: bioavailability (%)
Enter your answer as a number in %; do not include the unit.

Problem: Supply measured bioavailability of CCOc1ccc(-c2ccc(Cn3c(CC(C)(C)C(=O)[O-])c(SC(C)(C)C)c4cc(OCc5ccc(C)cn5)ccc43)cc2)cn1.[Na+] in your reply.
Solution: 52

###

- EXPERIMENT: Single-dose pharmacokinetics in beagle dogs
- Type: in vivo, female beagle dogs
- EXPERIMENTAL CONTEXT: female, beagle, dog, plasma, po, 5 mg/kg, 0.5% Methylcellulose, Fasted
TEST READOUT: Tmax (h)
Enter your answer as a number in h; do not include the unit.

Problem: Supply measured Tmax of CCOc1ccc(-c2ccc(Cn3c(CC(C)(C)C(=O)[O-])c(SC(C)(C)C)c4cc(OCc5ccc(C)cn5)ccc43)cc2)cn1.[Na+] in your reply.
Solution: 2

###

- EXPERIMENT: Phase I study: pharmacokinetics after single and multiple oral doses
- Format: in vivo
- EXPERIMENTAL CONTEXT: human, plasma, oral, 10 mg, multiple dose 10 mg, Day 11; read-out: AUClast
TEST READOUT: AUC(0-t) (µM·h)
Enter your answer as a number in µM·h; do not include the unit.

Problem: Supply measured AUC(0-t) of CCOc1ccc(-c2ccc(Cn3c(CC(C)(C)C(=O)[O-])c(SC(C)(C)C)c4cc(OCc5ccc(C)cn5)ccc43)cc2)cn1.[Na+] in your reply.
Solution: 2.4

###

- EXPERIMENT: Phase I study: pharmacokinetics after single and multiple oral doses
- Assay type: in vivo
- EXPERIMENTAL CONTEXT: human, plasma, po, 50 mg, single dose 50 mg, oral solution
- Method: Study Design: Single center, double-blind, randomized, placebo-controlled, single ascending dose followed by multiple ascending dose study. […] Plasma concentrations of Compound 1 were determined using a validated LC/MS method. […] Analysis of Samples: Concentrations of Compound 1 was determined in plasma samples collected from subjects. Similarly, concentrations of LTB4 in plasma and urinary LTE4 were determined in blood and urine samples collected.
TEST READOUT: Cmax (nM)
Enter your answer as a number in nM; do not include the unit.

Problem: Supply measured Cmax of CCOc1ccc(-c2ccc(Cn3c(CC(C)(C)C(=O)[O-])c(SC(C)(C)C)c4cc(OCc5ccc(C)cn5)ccc43)cc2)cn1.[Na+] in your reply.
Solution: 570
